Kindly state pIC50 for each of the entries shown.
- assayed-system: LasB (Pseudomonas aeruginosa, UniProt Q02RJ6)
- Construct: made in house
- Sequence (Q02RJ6 198-498): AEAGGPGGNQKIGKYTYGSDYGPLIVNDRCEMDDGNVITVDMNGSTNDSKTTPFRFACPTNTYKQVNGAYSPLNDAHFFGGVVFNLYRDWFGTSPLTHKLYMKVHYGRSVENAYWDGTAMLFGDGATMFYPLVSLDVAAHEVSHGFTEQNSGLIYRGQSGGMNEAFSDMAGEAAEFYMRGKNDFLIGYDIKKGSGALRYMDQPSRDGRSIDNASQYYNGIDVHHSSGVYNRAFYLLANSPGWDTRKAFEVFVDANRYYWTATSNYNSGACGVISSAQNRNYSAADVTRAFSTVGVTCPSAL
- assay-comment: In vitro LasB inhibition assay
- Assay type: biochemical
- particulars: IC50 LasB inhibition
Note: pIC50 values are expressed as the negative base-10 logarithm of concentration in M.

Q: Consider the molecule shown here: CC(C)CC(C(=O)N[C@H](C(=O)Nc1ccc(Cl)c(Cl)c1)C1CCC1)P(=O)(O)O (stereo partly drawn) What is its recorded pIC50?
Ans: 7.92

Q: Consider the molecule shown here: CC(C)CC(C(=O)N[C@H](C(=O)Nc1cccc(Cl)c1)C(C)C)P(=O)(O)O (stereo partly drawn) What is its recorded pIC50?
Ans: 6.55

Q: Consider the molecule shown here: CC(C)C[C@@H](C(=O)N[C@H](C(=O)Nc1ccc(-n2ccnc2)cc1)C(C)C)P(=O)(O)O [(S)‐36] What is its recorded pIC50?
Ans: 6.38

Reference source for all entries: paper PMC11984924
